# measured-on: human A2a receptor (Homo sapiens)
# Construct: purchased Perkin-Elmer RBHA2AM400UA; host or cells: HEK293 cells (membranes)
# experiment-description: Competition binding assay using Scintillation Proximity technology (A2a activity)
# reported-conditions: membranes from HEK293 cells expressing the human A2a receptor; 0.5 nM tritiated ligand; Cheng-Prusoff
Consider the cut-off 20 nM. If the recorded Ki is strictly smaller, the label is YES; if not, the label is NO.

Worked cases, answers included:
- entry-smiles: "Nc1nc2ccc(F)cc2c2cc(C(=O)N3CCN(c4ccccn4)CC3)nn12"
  class-name: "NO"
- entry-smiles: "COc1cccc2c1nc(N)n1nc(Cc3cccc4ccc(C)nc34)cc21"
  class-name: "NO"

Inquiry: Given the entry COc1cccc2c1nc(N)n1nc(Cc3ccccc3N(C)C)cc21 , would its reported Ki be below 20 nM?
Reply text: YES

Inquiry: Given the entry COc1cccc2c1nc(N)n1nc(-c3nc(-c4ccccc4)no3)cc21 , would its reported Ki be below 20 nM?
Reply text: NO

Inquiry: Given the entry COc1cccc2c1nc(N)n1nc(C(=O)N3CCN(Cc4ccccc4)CC3)cc21 , would its reported Ki be below 20 nM?
Reply text: YES

###

Ki: recorded values
# measured-on: human A2a receptor (Homo sapiens, UniProt P29274)
# Construct: purchased Perkin-Elmer RBHA2AM400UA; host or cells: HEK293 cells (membranes)
# Sequence (P29274 whole entry): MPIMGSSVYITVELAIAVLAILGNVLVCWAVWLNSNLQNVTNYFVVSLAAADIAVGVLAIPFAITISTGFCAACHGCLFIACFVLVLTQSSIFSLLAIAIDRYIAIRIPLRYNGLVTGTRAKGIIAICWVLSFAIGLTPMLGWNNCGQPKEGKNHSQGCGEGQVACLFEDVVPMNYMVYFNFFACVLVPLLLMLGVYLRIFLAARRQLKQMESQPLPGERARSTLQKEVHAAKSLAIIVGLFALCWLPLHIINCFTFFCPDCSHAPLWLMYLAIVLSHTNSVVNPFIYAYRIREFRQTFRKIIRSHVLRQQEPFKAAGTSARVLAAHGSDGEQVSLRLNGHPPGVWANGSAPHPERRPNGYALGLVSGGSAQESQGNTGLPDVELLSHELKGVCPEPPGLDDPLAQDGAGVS
# experiment-description: Competition binding assay using Scintillation Proximity technology (A2a activity)
# reported-conditions: membranes from HEK293 cells expressing the human A2a receptor; 0.5 nM tritiated ligand; Cheng-Prusoff
Kindly answer with a numeric value in nM, unit omitted.

Look over these answered cases.
- compound: "Nc1nc2ccccc2c2cc(Cc3ccnc4ccccc34)nn12 [Ex-95]"
  measured-on: "human A2a receptor (Homo sapiens, UniProt P29274)"
  value: 68
- compound: "COc1cccc2c1nc(N)n1nc(Cc3ccccc3CN3CCC(C)(O)CC3)cc21 [Ex-27]"
  measured-on: "human A2a receptor (Homo sapiens, UniProt P29274)"
  value: 18
- compound: "COc1cccc2c1nc(N)n1nc(C(=O)N3CCC4(CCN(C(=O)OC(C)(C)C)C4)CC3)cc21 [Ex-83]"
  measured-on: "human A2a receptor (Homo sapiens, UniProt P29274)"
  value: 80
- compound: "COc1cccc2c1nc(N)n1nc(Cc3ccc(N4CCN(C(=O)OC(C)(C)C)CC4)cc3)cc21 [Ex-24]"
  measured-on: "human A2a receptor (Homo sapiens, UniProt P29274)"
  value: 224
- compound: "COc1cccc2c1nc(N)n1nc(-c3cnco3)cc21 [Ex-2]"
  measured-on: "human A2a receptor (Homo sapiens, UniProt P29274)"
  value: 20
- compound: "Nc1nc2ccccc2c2cc(Cc3ccccc3N3CCOCC3)nn12 [Ex-96]"
  measured-on: "human A2a receptor (Homo sapiens, UniProt P29274)"
  value: 53
- compound: "COc1cccc2c1nc(N)n1nc(Cc3ccccc3CN3CCCC3)cc21 [Ex-29]"
  measured-on: "human A2a receptor (Homo sapiens, UniProt P29274)"
  value: 17
- compound: "COc1cccc2c1nc(N)n1nc(Cc3cc(Cl)cc(C#N)c3)cc21 [Ex-62]"
  measured-on: "human A2a receptor (Homo sapiens, UniProt P29274)"
  value: 134
- compound: "COc1cccc2c1nc(N)n1nc(Cc3cccc(-n4cccn4)c3)cc21 [Ex-58]"
  measured-on: "human A2a receptor (Homo sapiens, UniProt P29274)"
  value: 69
- compound: "COc1cccc2c1nc(N)n1nc(Cc3cc(F)ccc3F)cc21 [Ex-64]"
  measured-on: "human A2a receptor (Homo sapiens, UniProt P29274)"
  value: 2

Inquiry: # Ki lookup, item COc1cccc2c1nc(N)n1nc(Cc3ccccc3CN3CCOCC3)cc21 [Ex-21]
Reply text: 51

Inquiry: # Ki lookup, item COc1cccc2c1nc(N)n1nc(Cc3cccc(Cl)c3Cl)cc21 [Ex-43]
Reply text: 80

Inquiry: # Ki lookup, item COc1cccc2c1nc(N)n1nc(Cc3ccccc3OC(F)(F)F)cc21 [Ex-46]
Reply text: 34

Inquiry: # Ki lookup, item COc1cccc2c1nc(N)n1nc(Cc3cccc4cccnc34)cc21 [Ex-9]
Reply text: 3

Inquiry: # Ki lookup, item COc1cccc2c1nc(N)n1nc(CN3CC(O)C3)cc21 [Ex-67]
Reply text: 473

src = patent US10688082B2
